B1: IQUB (parent)
chain: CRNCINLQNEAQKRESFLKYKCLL

variants of: B1; assay: protein stability index of a GFP-peptide fusion (GPS, HEK-293T) (PSI 1-6); higher = more stable; conditions: c terminus: a fixed tail appended;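 note: lentivirally expressed fusions sorted by FACS into six bins by GFP to DsRed ratio, PSI derived from sequencing read proportions per bin multiplied by bin number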
property_label: protein stability index

Check out these entries, answers already filled in.
CRNCINLQNFAQKRESFLKYKCLL [E10F]
2.7
CRNCINLCNEAQKRESFLKYKCLL [Q8C]
2.9
ARNCINLQNEAQKRESFLKYKCLL [C1A]
2.36
CRNCINLQNEAQKRESFLKYKLLL [C22L]
1.76

In plain terms, TRNCINLQNEAQKRESFLKYKCLL [C1T] has a documented protein stability index of 2.66

In plain terms, CRNCINLQNEAQKWESFLKYKCLL [R14W] has a documented protein stability index of 1.86

In plain terms, CRNCIVLQNEAQKRESFLKYKCLL [N6V] has a documented protein stability index of 1.88

In plain terms, CYNCINLQNEAQKRESFLKYKCLL [R2Y] has a documented protein stability index of 1.64

In plain terms, CRNCINLQNEAQKRESFEKYKCLL [L18E] has a documented protein stability index of 2.25

In plain terms, CRNCIRLQNEAQKRESFLKYKCLL [N6R] has a documented protein stability index of 2.09

In plain terms, CRNCINLQNEAQKRESFLKYKCLK [L24K] has a documented protein stability index of 2.53

In plain terms, CRNCINLQNEANKRESFLKYKCLL [Q12N] has a documented protein stability index of 1.69

In plain terms, CRNCINLQNEAQKRESFLKYKCSL [L23S] has a documented protein stability index of 2.18

In plain terms, CRNCINLQNEAYKRESFLKYKCLL [Q12Y] has a documented protein stability index of 2.28

In plain terms, CRNCRNLQNEAQKRESFLKYKCLL [I5R] has a documented protein stability index of 1.88
